System: DGAT
procedure summary: DGAT Phospholipid FlashPlate Assay
Assay type: biochemical
condition details: DGAT pellet, DAG-coated PL-FlashPlate, 14C-Pal-CoA, 37° C. for 1 hour; read-out: DGAT Inhibition Activity IC50
Description: DGAT Phospholipid FlashPlate Assay […] 1,2-Dioleoyl-sn-glycerol (DAG, 10 mmoles) was diluted to 500 μM with coating buffer (CB). […] Plates were sealed with Top-seal and read on a Topcount instrument. Calculation of IC50: The IC50 values for each compound were generated using an Excel template. […] The percent inhibition values of reactions in the presence of compounds were calculated, and plotted against compound concentrations. […]
Where a name gives a salt, the structure may show the parent alone.
metric name: IC50 (nM)
Dear colleague, please return just the value in nM, with no unit written.

Below, 6 compounds whose answers are already recorded.
- compound: "CCOC(=O)N1CC[C@H](Nc2ccc(NC(=O)c3cc4c(OC)c(OC)ccc4n3CC)cn2)C1 [Example 54, hydrochloride]"
  measurement unit: "nM"
  IC50: 309
- compound: "CCOC(=O)N1CC[C@H](Nc2ccc(NC(=O)c3cc4c(C)cccc4n3CC)cn2)C1 [Example 53, hydrochloride]"
  measurement unit: "nM"
  IC50: 209
- compound: "CCOc1ccc2c(C)c(C(=O)Nc3ccc(N4CCN(C(=O)OC(C)(C)C)CC4)cc3)oc2c1OCC"
  measurement unit: "nM"
  IC50: 848
- compound: "CC(C)(C)OC(=O)N1CCN(c2ccc(NC(=O)c3cc4cc(Br)ccc4s3)cn2)CC1"
  measurement unit: "nM"
  IC50: 479
- compound: "CC(C)(CC(=O)N1CCC(c2ccc(NC(=O)c3cc4c(Cl)cccc4s3)cc2)CC1)C(=O)O"
  measurement unit: "nM"
  IC50: 127
- compound: "CCOC(=O)N1CCC(Oc2ccc(NC(=O)c3[nH]c4c(OC)cccc4c3C)cc2)C1 (stereo not shown)"
  measurement unit: "nM"
  IC50: 90

Kindly review the next compound as well.
Short answer please: IC50, DGAT, entry `CC(C)(CC(=O)N1CCN(c2ccc(NC(=O)c3cc4c(Cl)cccc4s3)cc2)CC1)C(=O)O`
145

###

Tested on: DGAT
procedure summary: DGAT Phospholipid FlashPlate Assay
Format: biochemical
condition details: DGAT pellet, DAG-coated PL-FlashPlate, 14C-Pal-CoA, 37° C. for 1 hour; read-out: DGAT Inhibition Activity IC50
Counter-ions that a name gives are not always drawn.
Under this convention, Yes denotes IC50 strictly below 300 nM and No denotes IC50 at or above 300 nM.

These recorded examples may help you get a feel for the data.
- compound: "CCOc1cccc2c1cc(C(=O)Nc1ccc(N3CCN(C(=O)CC4SC(=O)NC4=O)CC3)cc1)n2CC (stereo not shown) [Example 68, hydrochloride]"
  class name: "Yes"
- compound: "CCn1c(C(=O)Nc2ccc(N3CCN(C(=O)CC(C)(C)C(=O)O)CC3)nc2)cc2c(OC)cc(OC)cc21 [Example 17]"
  class name: "Yes"
- compound: "COc1cccc2c(C)c(C(=O)Nc3ccc(N4CCN(C(=O)[C@H]5CC[C@H](C(=O)O)CC5)CC4)cc3)[nH]c12 [Example 76]"
  class name: "Yes"

Does the reported IC50 of the following compound sit strictly below 300 nM? CCn1c(C(=O)Nc2ccc(N3CCN(C(=O)OC(C)(C)C)CC3)nc2)cc2c(Cl)c(Cl)ccc21 [Example 18]
Yes

Also check CCCn1c(C(=O)Nc2ccc(N(C)CCOC)nc2)cc2ccccc21 [Example 41, hydrochloride]
No

Also check CC(C)(CC(=O)N1CCN(c2ccc(NC(=O)c3cc4cc(Br)ccc4s3)cn2)CC1)C(=O)O [Example 4]
Yes

Also check CCn1c(C(=O)Nc2ccc(N3CCN(C(=O)CC(C(=O)O)C4CCCCC4)CC3)cc2)cc2c(Cl)c(Cl)ccc21 (stereo not shown) [Example 63, hydrochloride]
No

###

Tested on: DGAT
procedure summary: DGAT Phospholipid FlashPlate Assay
Assay type: biochemical
condition details: DGAT pellet, DAG-coated PL-FlashPlate, 14C-Pal-CoA, 37° C. for 1 hour; read-out: DGAT Inhibition Activity IC50
metric name: IC50
Field: value (include unit after the number)

- compound: "CCOC(=O)N1CCC(Oc2ccc(NC(=O)c3oc4c(OCC)c(OCC)ccc4c3C)cc2)C1 (stereo not shown) [Example 80]"
  IC50: "583 nM"

// returns reported IC50 for input CCn1c(C(=O)Nc2ccc(N3CCN(C(=O)CC(C)(C)C(=O)O)CC3)nc2)cc2c(C(F)(F)F)cccc21 [Example 15]
183 nM

Also check CCOc1cccc2c1cc(C(=O)Nc1ccc(N3CCN(C(=O)CC(C)(C)C(=O)O)CC3)nc1)n2CC [Example 6]
189 nM

Also check CCn1c(C(=O)Nc2ccc(N3CCN(C(=O)CC4SC(=O)NC4=O)CC3)cc2)cc2c(Cl)c(Cl)ccc21 (stereo not shown) [Example 69]
236 nM

Also check CCOc1cccc2c1cc(C(=O)Nc1ccc(C3CCN(C(=O)CC(C)(C)C(=O)O)CC3)cc1)n2CC [Example 7]
316 nM

Also check CCn1c(C(=O)Nc2ccc(N3CCN(C(=O)CC(C)(C)C(=O)O)CC3)cc2)cc2c(Cl)c(Cl)ccc21 [Example 60]
210 nM

Also check CCn1c(C(=O)Nc2ccc(C3CCN(C(=O)CC4(C(=O)O)CCCC4)CC3)cc2)cc2c(Cl)c(Cl)ccc21 [Example 62]
240 nM

###

Test system: DGAT
procedure summary: DGAT Phospholipid FlashPlate Assay
Format: biochemical
condition details: DGAT pellet, DAG-coated PL-FlashPlate, 14C-Pal-CoA, 37° C. for 1 hour; read-out: DGAT Inhibition Activity IC50
Where a name gives a salt, the structure may show the parent alone.
Each entry below lists one item and its recorded pIC50 value.
Scale explanation: pIC50 corresponds to minus log10 of a concentration expressed in moles per litre.

- compound: "CCOC(=O)N1CC[C@H](Nc2ccc(NC(=O)c3cc4cc(C(F)(F)F)ccc4s3)cn2)C1 [Example 49, hydrochloride]"
  pIC50: 6.23
- compound: "CCOc1cccc2c1cc(C(=O)Nc1ccc(N3CCN(C(=O)OC(C)(C)C)CC3)nc1)n2CC [Example 5]"
  pIC50: 6.74
- compound: "CCn1c(C(=O)Nc2ccc(C3CCN(C(=O)CC(C(=O)O)c4ccccc4)CC3)cc2)cc2c(Cl)c(Cl)ccc21 (stereo not shown) [Example 61]"
  pIC50: 6.10

Kindly review the next compound as well.
// returns reported pIC50 for input COc1cccc2c(C)c(C(=O)Nc3ccc(N4CCN(C(=O)OC(C)(C)C)CC4)cc3)[nH]c12 [Example 71]
6.73

###

System: DGAT
procedure summary: DGAT Phospholipid FlashPlate Assay
Format: biochemical
condition details: DGAT pellet, DAG-coated PL-FlashPlate, 14C-Pal-CoA, 37° C. for 1 hour; read-out: DGAT Inhibition Activity IC50
Where a name gives a salt, the structure may show the parent alone.
metric name: IC50 (nM)
Dear colleague, please return just the value in nM, with no unit written.

// returns reported IC50 for input CCn1c(C(=O)Nc2ccc(N(C)CCOC)nc2)cc2ccccc21 [Example 37, hydrochloride]
425

Also check `COCCN(C)c1ccc(NC(=O)c2oc3c(F)cccc3c2C)cn1`
430

Also check `CC(C)(CC(=O)N1CCN(c2ccc(NC(=O)c3cc4c(Cl)cccc4s3)cn2)CC1)C(=O)O`
32

###

Tested on: DGAT
procedure summary: DGAT Phospholipid FlashPlate Assay
Type: biochemical
condition details: DGAT pellet, DAG-coated PL-FlashPlate, 14C-Pal-CoA, 37° C. for 1 hour; read-out: DGAT Inhibition Activity IC50
metric name: IC50 (nM)
Dear colleague, please return just the value in nM, with no unit written.

- molecule: "CCn1c(C(=O)Nc2ccc(N(C)CCOC)nc2)cc2cc(OCc3ccccc3)ccc21 [Example 40]"
  IC50 / nM: 797

Kindly review the next molecule as well.
Short answer please: IC50, DGAT, entry CCn1c(C(=O)Nc2ccc(N3CCN(C(=O)CC(C(=O)O)C(C)C)CC3)cc2)cc2c(Cl)c(Cl)ccc21 (stereo not shown) [Example 64]
164

###

Test system: DGAT
procedure summary: DGAT Phospholipid FlashPlate Assay
Assay type: biochemical
condition details: DGAT pellet, DAG-coated PL-FlashPlate, 14C-Pal-CoA, 37° C. for 1 hour; read-out: DGAT Inhibition Activity IC50
Counter-ions that a name gives are not always drawn.
Each entry below lists one item and its recorded IC50 value.
Dear colleague, please return just the value in nM, with no unit written.

Below, 2 compounds whose answers are already recorded.
- compound: "CCn1c(C(=O)Nc2ccc(N(C)CCOC)nc2)cc2c(OC)cccc21 [Example 38, hydrochloride]"
  measurement unit: "nM"
  reported measurement: 102
- compound: "CCOC(=O)N1CC[C@H](Nc2ccc(NC(=O)c3cc4cc(OC)ccc4n3CC)cn2)C1 [Example 51, hydrochloride]"
  measurement unit: "nM"
  reported measurement: 343

// returns reported IC50 for input CCn1c(C(=O)Nc2ccc(N3CCN(C(=O)CC(C)(C)C(=O)O)CC3)nc2)cc2c(OCC(C)C)cccc21 [Example 13]
283
